target: Nuclear receptor subfamily 1 group I member 2 (Homo sapiens) (UniProt O75469); assay: Human pregnane X receptor (PXR) small molecule agonists, qHTS assay (AID 1346982); conditions: PXR-Luc HepG2, CYP3A4 luciferase reporter, 24 h; series mostly up to 92.4 µM; note: nearly all actives have a fitted effect of over 35% in size
Sequence (O75469 whole entry, looked up): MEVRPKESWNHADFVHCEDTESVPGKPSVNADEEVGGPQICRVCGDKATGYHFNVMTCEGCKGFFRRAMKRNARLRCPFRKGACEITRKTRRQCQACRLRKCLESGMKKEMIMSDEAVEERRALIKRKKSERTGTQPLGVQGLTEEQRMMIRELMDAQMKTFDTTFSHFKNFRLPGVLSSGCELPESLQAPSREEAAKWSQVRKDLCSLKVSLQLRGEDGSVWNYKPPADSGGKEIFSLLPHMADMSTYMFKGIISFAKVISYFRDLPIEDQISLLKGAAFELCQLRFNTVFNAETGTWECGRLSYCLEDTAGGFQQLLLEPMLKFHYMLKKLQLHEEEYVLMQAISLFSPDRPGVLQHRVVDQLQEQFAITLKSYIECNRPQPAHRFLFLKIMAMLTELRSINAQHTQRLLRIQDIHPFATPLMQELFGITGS
Results filed as inconclusive are left out. The source made the active and inactive calls. Calls come from the whole dose curve; as a rule, active = well fitted activation curve with a large enough effect in the repeat runs; inconclusive = weak or mixed curves; inactive = no such curve, though single readings can be large or run the other way.
Outcomes: T for active, F for inactive

• CC(C)Nc1ccccc1 = F
• COC(=O)CCCCC(=O)O = F
• C=CCCCCCCCCC(=O)OCCCC = F
• Cc1ccc2c(c1)C(=O)c1ccccc1C2=O = T
• Cc1c(Cl)cccc1Cl = F
• CC1(C)Oc2ccc(C#N)cc2[C@@H](N2CCCC2=O)[C@@H]1O = F
• COc1ccc2c(c1)c1c3n2CCN(C)C3=NCC1 = F
• CC1CC(=O)CC(C)(C)C1 (centres undefined) = F
• OCC(O)CN1CCN(c2ccccc2)CC1 (centres undefined) = F
• CCCC(=O)Nc1ccc(OCC(O)CNC(C)C)c(C(C)=O)c1 (centres undefined) = F
• C=CCSSCCC = F
• COc1cc2c(cc1OC)C(=O)C(CC1CCN(Cc3ccccc3)CC1)C2 (centres undefined) = F
• CCCCCCCCCOC(=O)c1ccccc1C(=O)OCCCCCCCCC = T
• CCC(C)C(=O)OCCc1ccccc1 (centres undefined) = F
• CC(=O)OC(C)=O = F
• CC1=C(C(=O)O)N2C(=O)[C@@H](NC(=O)[C@H](N)c3ccccc3)[C@H]2SC1 = F
• N#Cc1ccccc1O = F
• OC[C@H]1O[C@@H](O[C@@H]2[C@@H](CO)O[C@](O)(CO)[C@H]2O)[C@H](O)[C@@H](O)[C@H]1O = F
• c1ccc2c(CC3=NCCN3)cccc2c1 = F
• O=C(CCCl)NCCc1ccccc1 = F
• CC/C(C)=N\O[Si](C)(O/N=C(\C)CC)O/N=C(\C)CC = F
• CCCCCCCCCCCCCCCCCC#N = F
• CCC(=O)c1c(O)cc(O)cc1O = F
• COS(=O)(=O)O = F
